# Target Desc: Drak2 (Homo sapiens, UniProt O94768)
# Sequence (O94768 whole entry, species assumed): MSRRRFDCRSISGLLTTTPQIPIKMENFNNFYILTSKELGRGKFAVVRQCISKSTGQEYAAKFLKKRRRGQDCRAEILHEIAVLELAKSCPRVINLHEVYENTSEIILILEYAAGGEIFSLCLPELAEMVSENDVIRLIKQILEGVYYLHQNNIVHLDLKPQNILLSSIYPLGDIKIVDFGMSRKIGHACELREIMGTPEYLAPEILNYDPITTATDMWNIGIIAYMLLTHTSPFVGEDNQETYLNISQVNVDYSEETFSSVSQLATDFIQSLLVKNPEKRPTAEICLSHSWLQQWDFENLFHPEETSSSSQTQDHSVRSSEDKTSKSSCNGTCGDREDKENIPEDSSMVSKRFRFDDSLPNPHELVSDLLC
# Assay Details: Drak2 activity test, ADP-Glo kinase assay (Promega)
# Type: biochemical
# Condition Parameters: inhibition of Drak2 kinase activity, 2 h room temperature, activity range classes, read-out: IC50_Drak2
pIC50: −log10 of the molar value.
Recorded Metric: pIC50

>>> endpoint_value("CCCCCCCCC(=O)Nc1csc(-c2cncc(-c3ccc(C(=O)Nc4nnn[nH]4)c(OC)c3)n2)c1")
"< 5.00"
>>> endpoint_value("COc1ccc(-c2cncc(-c3cc(NC(=O)C4CCCCC4)cs3)n2)cc1OC")
"6.00 to 7.00"
>>> endpoint_value("CCCCC(=O)Nc1csc(-c2cncc(-c3ccc(C(=O)Nc4cn(C)c(C(=O)OC)n4)c(OC)c3)n2)c1")
"6.00 to 7.00"
>>> endpoint_value("CCCCCC(=O)Nc1csc(-c2cncc(-c3ccc(C(=O)Nc4nnn[nH]4)c(OC)c3)n2)c1")
"6.00 to 7.00"
>>> endpoint_value("COc1cc(-c2cncc(-c3cc(NC(=O)CC4CCC4)cs3)n2)ccc1C(=O)NO")
"> 8.00"
>>> endpoint_value("COc1cc(-c2cncc(-c3cc(NC(=O)C(N)C4CCC4)cs3)n2)ccc1C(=O)N(C)C1CCN(C)CC1 (stereo not shown)")
"6.00 to 7.00"

In the following, a different compound is considered.
Ask: Query pIC50 for "COc1cc(-c2cncc(-c3cc(NC(=O)CC4CCCCC4)cs3)n2)ccc1C(=O)Nc1nnnn1C"
Reply: 6.00 to 7.00

Source listed as patent US20240308992A1.
